- Measurement target: hemoglobin (Hb) (Homo sapiens, UniProt P68871+P69905)
- Construct: To assess the stability of hemoglobin in stool samples, samples were exposed to simulated shipping stress conditions; from tissue; host or cells: stool samples
- Sequence (P69905 2-142 limits assumed): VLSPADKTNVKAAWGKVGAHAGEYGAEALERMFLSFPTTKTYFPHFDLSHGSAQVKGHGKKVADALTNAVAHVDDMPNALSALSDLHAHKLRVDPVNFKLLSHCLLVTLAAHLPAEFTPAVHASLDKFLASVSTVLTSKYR
- Sequence (P68871 2-147 limits assumed): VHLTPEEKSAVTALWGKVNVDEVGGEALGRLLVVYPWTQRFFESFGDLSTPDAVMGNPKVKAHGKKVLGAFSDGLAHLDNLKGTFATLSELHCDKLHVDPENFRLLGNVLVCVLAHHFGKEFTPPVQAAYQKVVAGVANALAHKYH
- Experiment: Appendix B: additives in Hb Collection Buffer, % Hb Recovery
- Details: additive concentration 10 uM
Reported endpoint: Results

Examples with their reported Results follow.
C=CC1=C(C)c2cc3[n-]c(cc4nc(cc5[n-]c(cc1n2)c(C)c5C=C)C(C)=C4CCC(=O)O)c(CCC(=O)O)c3C.[Cl-].[Cl-].[Sn+4]	No Improvement
C=CC1=C(C)c2cc3[n-]c(cc4nc(cc5[n-]c(cc1n2)c(C)c5C=C)C(C)=C4CCC(=O)O)c(CCC(=O)O)c3C.[Zn+2]	Improvement in % Hb
C=Cc1c(C)c2cc3[nH]c(cc4nc(cc5nc(cc1[nH]2)C(C)=C5CCC(=O)[O-])C(CCC(=O)[O-])=C4C)c(C)c3C=C.[Co+2]	Improvement in % Hb
C=CC1=C(C)c2cc3[n-]c(cc4nc(cc5[n-]c(cc1n2)c(C)c5CCC(=O)O)C(CCC(=O)O)=C4C)c(C)c3C=C.[Mg+2]	No Improvement
C=CC1=C(C)c2cc3[n-]c(cc4nc(cc5[n-]c(cc1n2)c(C)c5C=C)C(C)=C4CCC(=O)O)c(CCC(=O)O)c3C.[Cl-].[Mn+3]	No Improvement

Proceeding to the next compound to report its Results.
Which Results value belongs to `C=CC1=C(C)c2cc3[n-]c(cc4nc(cc5[n-]c(cc1n2)c(C)c5C=C)C(C)=C4CCC(=O)O)c(CCC(=O)O)c3C.[Cu+2]` ?
No Improvement

The origin of these recorded values is patent US20240402196A1.
